Reported DC50 values for a set of compounds
Target: BRAF V600E (Homo sapiens, UniProt P15056, V600E)
Construct: expressed in transfected cells
Sequence (P15056 whole entry V600E): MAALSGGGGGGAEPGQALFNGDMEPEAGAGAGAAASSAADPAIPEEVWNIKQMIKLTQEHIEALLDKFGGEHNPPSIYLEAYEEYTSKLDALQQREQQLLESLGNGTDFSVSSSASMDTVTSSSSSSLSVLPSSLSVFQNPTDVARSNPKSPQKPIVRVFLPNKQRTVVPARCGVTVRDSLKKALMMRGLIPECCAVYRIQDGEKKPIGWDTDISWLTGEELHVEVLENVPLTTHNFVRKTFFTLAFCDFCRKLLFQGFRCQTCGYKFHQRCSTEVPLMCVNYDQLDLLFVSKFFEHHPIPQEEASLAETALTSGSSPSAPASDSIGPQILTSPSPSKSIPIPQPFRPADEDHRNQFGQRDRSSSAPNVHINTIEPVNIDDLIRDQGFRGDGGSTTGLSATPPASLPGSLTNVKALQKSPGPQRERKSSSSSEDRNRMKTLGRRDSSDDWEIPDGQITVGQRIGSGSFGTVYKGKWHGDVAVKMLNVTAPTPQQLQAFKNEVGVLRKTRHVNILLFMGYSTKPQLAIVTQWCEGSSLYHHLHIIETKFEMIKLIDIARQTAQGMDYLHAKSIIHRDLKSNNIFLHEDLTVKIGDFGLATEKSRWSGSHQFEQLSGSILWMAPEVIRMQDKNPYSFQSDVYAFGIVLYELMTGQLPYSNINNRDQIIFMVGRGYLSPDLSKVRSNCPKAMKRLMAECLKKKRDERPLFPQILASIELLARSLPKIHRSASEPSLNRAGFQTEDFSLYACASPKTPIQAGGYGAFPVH
Assay: Cellular assay of target protein degradation, T-Rex 293 cells stably transfected with HA-BRAF_V600E (HA immunofluorescence, high content imaging)
Type: cell-based
Conditions: half maximal degradation, T-Rex 293 HA-BRAF V600E; read-out: BRaf V600E DC50

Ask: # input compound: O=C1CCC(N2Cc3cc(N4CCC(CN5CC(C6CN(c7ccc(-c8cnc9[nH]cc(C(=O)c%10c(F)ccc(NS(=O)(=O)N%11CC[C@@H](F)C%11)c%10F)c9c8)cc7)C6)C5)CC4)ccc3C2=O)C(=O)N1 (stereo partly drawn) ; wanted: its DC50
Result: 5 to 50 nM

Ask: Next compound: O=C1CCC(N2Cc3cc(N4CCN(CC5CN(c6ncc(-c7cnc8[nH]cc(C(=O)c9c(F)ccc(NS(=O)(=O)N%10CC[C@@H](F)C%10)c9F)c8c7)cn6)C5)CC4)ccc3C2=O)C(=O)N1 (stereo partly drawn)
Result: 5 to 50 nM

Ask: Next compound: O=C1CCN(c2ccc(C3CCN(CCC4CCN(c5ccc(-c6cnc7[nH]cc(C(=O)c8c(F)ccc(NS(=O)(=O)N9CC[C@@H](F)C9)c8F)c7c6)cc5)CC4)CC3)cc2F)C(=O)N1
Result: 5 to 50 nM

----------
Molecular target: BRAF G466V (Homo sapiens, UniProt P15056, G466V)
Construct: expressed in transfected cells
Sequence (P15056 whole entry G466V): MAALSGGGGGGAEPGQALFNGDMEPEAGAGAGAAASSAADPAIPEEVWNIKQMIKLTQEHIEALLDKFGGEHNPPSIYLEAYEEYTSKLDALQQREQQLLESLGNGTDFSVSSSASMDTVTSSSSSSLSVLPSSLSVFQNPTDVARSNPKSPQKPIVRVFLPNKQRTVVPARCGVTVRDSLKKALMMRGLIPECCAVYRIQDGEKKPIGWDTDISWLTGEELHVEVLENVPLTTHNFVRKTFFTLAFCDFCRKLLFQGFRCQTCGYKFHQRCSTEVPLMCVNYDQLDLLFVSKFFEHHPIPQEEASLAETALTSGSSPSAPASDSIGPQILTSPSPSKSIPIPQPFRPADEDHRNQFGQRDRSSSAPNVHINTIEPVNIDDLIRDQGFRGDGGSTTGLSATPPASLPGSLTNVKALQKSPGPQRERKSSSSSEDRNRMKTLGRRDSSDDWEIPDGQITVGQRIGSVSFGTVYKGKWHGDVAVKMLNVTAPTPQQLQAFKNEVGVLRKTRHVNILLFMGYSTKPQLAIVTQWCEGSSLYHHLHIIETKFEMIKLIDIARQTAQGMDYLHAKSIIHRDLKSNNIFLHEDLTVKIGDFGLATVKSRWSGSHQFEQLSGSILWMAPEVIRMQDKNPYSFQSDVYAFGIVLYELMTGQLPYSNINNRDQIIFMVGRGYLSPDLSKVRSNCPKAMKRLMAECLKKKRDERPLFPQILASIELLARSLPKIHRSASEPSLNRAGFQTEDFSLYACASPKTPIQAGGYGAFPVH
Assay: Cellular assay of target protein degradation, T-Rex 293 cells stably transfected with HA-BRAF G466V (HA immunofluorescence, high content imaging)
Assay type: cell-based
Details: maximum degradation observed, T-Rex 293 HA-BRAF G466V
quantity: Dmax

Ask: Query the reported Dmax for BRAF G466V (Homo sapiens, UniProt P15056, G466V); item: O=C1CCC(N2Cc3cc(CN4CCN(c5ccc(-c6cnc7[nH]cc(C(=O)c8c(F)ccc(NS(=O)(=O)N9CC[C@@H](F)C9)c8F)c7c6)cc5)C[C@H]4CO)ccc3C2=O)C(=O)N1 (stereo partly drawn) [Compound 112]
Result: 35 to 70%

Ask: Next compound: O=C1CCC(N2Cc3cc(C4CCN(CC5CCN(c6c(F)cc(-c7cnc8[nH]cc(C(=O)c9c(F)ccc(NS(=O)(=O)N%10CC[C@@H](F)C%10)c9F)c8c7)cc6F)CC5)CC4)ccc3C2=O)C(=O)N1 (stereo partly drawn) [Compound 94]
Result: > 70%

Ask: Next compound: O=C1CCC(N2Cc3cc(N4CC(N5C[C@H]6C[C@@H]5CN6c5ccc(-c6cnc7[nH]cc(C(=O)c8c(F)ccc(NS(=O)(=O)N9CC[C@@H](F)C9)c8F)c7c6)cc5)C4)ccc3C2=O)C(=O)N1 (stereo partly drawn) [Compound 5]
Result: 35 to 70%

Ask: Next compound: O=C1CC[C@H](N2Cc3cc(N4CC(CN5CCN(C6(c7ncc(-c8cnc9[nH]cc(C(=O)c%10c(F)ccc(NS(=O)(=O)N%11CC[C@@H](F)C%11)c%10F)c9c8)cn7)CC6)CC5)C4)ccc3C2=O)C(=O)N1 [Compound 202]
Result: 35 to 70%

Ask: Next compound: O=C1CCC(N2Cc3cc(C4CCN(CC5CC6(C5)CN(c5ccc(-c7cnc8[nH]cc(C(=O)c9c(F)ccc(NS(=O)(=O)N%10CC[C@@H](F)C%10)c9F)c8c7)cn5)C6)CC4)ccc3C2=O)C(=O)N1 (stereo partly drawn) [Compound 103]
Result: > 70%

Ask: Next compound: O=C1CCC(N2Cc3cc(N4CC5(CC(CN6CCCc7cc(-c8cnc9[nH]cc(C(=O)c%10c(F)ccc(NS(=O)(=O)N%11CC[C@@H](F)C%11)c%10F)c9c8)ccc76)C5)C4)ccc3C2=O)C(=O)N1 (stereo partly drawn) [Compound 47]
Result: 35 to 70%

Ask: Next compound: O=C1CC[C@@H](N2Cc3cc(OC[C@@H](O)CN4CC5(C4)CN(c4ccc(-c6cnc7[nH]cc(C(=O)c8c(F)ccc(NS(=O)(=O)N9CC[C@@H](F)C9)c8F)c7c6)cc4)C5)ccc3C2=O)C(=O)N1 [Compound 166]
Result: > 70%

Ask: Next compound: O=C1CCC(N2Cc3cc(CCCN4CC5(C4)CN(c4ccc(-c6cnc7[nH]cc(C(=O)c8c(F)ccc(NS(=O)(=O)N9CC[C@@H](F)C9)c8F)c7c6)cc4F)C5)ccc3C2=O)C(=O)N1 (stereo partly drawn) [Compound 310]
Result: > 70%

Ask: Next compound: COc1cc(N2CCC(CN3CCN(c4ccc(-c5cnc6[nH]cc(C(=O)c7c(F)ccc(NS(=O)(=O)N8CC[C@@H](F)C8)c7F)c6c5)cc4)CC3)CC2)ccc1C(=O)NC1CCC(=O)NC1=O (stereo partly drawn) [Compound 358]
Result: > 70%
